# System: AMPK-alpha2;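 further: KINOMEscan kinase panel screen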
# Construct: gene PRKAA2
# Recorded conditions: concentration: 1 μM, replicates: in singlicate; n = 1
Decide by %Inh: equal to or exceeding 10% means criterion met, less means criterion not met.

Here are 2 compounds together with their reported answers.
COc1cc2ncn(-c3cc(OCC4CCCO4)c(C(N)=O)s3)c2cc1OC (stereo not shown) [GSK204607] : criterion not met
Cc1cccc(-c2nc(C)cc(Nc3ccncc3)n2)n1 [GSK257997] : criterion met

Please find the next compound below.
Q: Determine whether this compound has %Inh no lower than 10%: COC(=O)c1c(-c2ccccc2)c2cc(OC)ccc2c(=O)n1Cc1ccccc1
Ans: criterion not met

Values from paper PMC5540273
